Biological target: T1, wildtype feline IL-31 protein (Feline_IL31_wildtype) (feline)
T1 construct: Full length feline IL-31 with C-terminal His tag, secreted from ExpiCHO cells; also called fIL-31
T1 chain: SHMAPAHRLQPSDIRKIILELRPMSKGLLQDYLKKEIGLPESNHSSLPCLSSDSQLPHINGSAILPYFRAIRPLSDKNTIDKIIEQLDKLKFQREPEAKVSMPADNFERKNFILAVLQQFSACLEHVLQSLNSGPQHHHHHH
Test: Biacore, feline IL-31 chip, mAb 100 nM, share of points within parent mean +/-3 SD
Set-up: key: % of mutant data points within parent mAb mean ±3 SD
Property: Binding Similarity score; scope: individual binders
Respond using a number only.

Binder: A65 (antibody, V domains shown) VH: QVLLVQSGAEVRTPGASVKIFCKASGYSFTSYTIHWLRQAPAQGLEWMGNINPTSGYTENNQRFKDRLTLTADTSTNTAYMELSSLRSADTAMYYCARWGFKYDGEWSFDAWGAGTTVTVSS VL: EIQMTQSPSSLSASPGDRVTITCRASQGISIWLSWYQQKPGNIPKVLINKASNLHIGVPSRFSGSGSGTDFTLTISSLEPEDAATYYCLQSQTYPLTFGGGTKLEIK
Binding Similarity score: 50.5
--
Binder: A52 (antibody, V domains shown) VH: QVLLVQSGAEVRTPGASVKIFCKASGYSFTSYTIHWLRQAPAQGLEWMGNINPTSGYTENNQRFKDRLTLTADTSTNTAYMELSSLRSADTAMYYCARAGFKYDGEWSFDVWGAGTTVTVSS VL: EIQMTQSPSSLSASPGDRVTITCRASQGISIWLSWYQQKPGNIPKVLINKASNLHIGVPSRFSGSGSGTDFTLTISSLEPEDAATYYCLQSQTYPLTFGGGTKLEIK
Binding Similarity score: 2.4

INPUT: Using the record for A42 (antibody, V domains shown) VH: QVLLVQSGAEVRTPGASVKIFCKASGYSFTSYTIHWLRQAPAQGLEWMGNINPASGYTENNQRFKDRLTLTADTSTNTAYMELSSLRSADTAMYYCARWGFKYDGEWSFDVWGAGTTVTVSS VL: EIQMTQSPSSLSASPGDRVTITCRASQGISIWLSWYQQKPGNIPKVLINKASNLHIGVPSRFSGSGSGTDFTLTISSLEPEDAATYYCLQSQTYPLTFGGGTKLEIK , report its Binding Similarity score.
OUTPUT: 44.9
